Overview of reported bioavailability across a group of molecules:
assay: Pharmacokinetic profile in male Swiss albino mice; conditions: mouse, in vivo, po
Give the value, in units of %, as a plain number.

CCn1c(=O)[nH]c2ncc(/C=C/C(=O)N(C)Cc3cc4ccccc4n3C)cc21; 29

So for CCC1(CC)C(=O)Nc2ncc(/C=C/C(=O)N(C)Cc3cc4ccccc4n3C)cc21 , the logged bioavailability turned out to be 51.5

So for Cc1c(CN(C)C(=O)/C=C/c2cnc3c(c2)C(C)(C)C(=O)N3)oc2ccccc12 , the logged bioavailability turned out to be 56.1

So for Cc1c(CN(C)C(=O)/C=C/c2cnc3c(c2)C2(CCC2)C(=O)N3)sc2ccccc12 , the logged bioavailability turned out to be 38.5

So for CN(Cc1cc2ccccc2n1C)C(=O)/C=C/c1cnc2[nH]nc(N(C)C)c2c1 , the logged bioavailability turned out to be 19

So for CCC1(CC)C(=O)Nc2ncc(/C=C/C(=O)N(C)Cc3sc4ccccc4c3C)cc21 , the logged bioavailability turned out to be 67.1

So for CCC1(CC)C(=O)Nc2ncc(/C=C/C(=O)N(C)Cc3oc4ccccc4c3C)cc21 , the logged bioavailability turned out to be 26

====

Assay: Pharmacokinetic profile in male Swiss albino mice
Details: mouse, in vivo, intravenous single dose 5 mg/kg body weight
Description: The following compounds were dosed to male Swiss albino mice to determine the pharmacokinetic profiles.
Result type: half-life (min)
Give the value, in units of min, as a plain number.

CCC1(CC)C(=O)Nc2ncc(/C=C/C(=O)N(C)Cc3oc4ccccc4c3C)cc21 [VT-02-00071]; 31.2
CCn1c(=O)[nH]c2ncc(/C=C/C(=O)N(C)Cc3cc4ccccc4n3C)cc21 [VT-02-00044]; 99
Cc1c(CN(C)C(=O)/C=C/c2cnc3c(c2)C(C)(C)C(=O)N3)oc2ccccc12 [VT-02-00068]; 109
Cc1c(CN(C)C(=O)/C=C/c2cnc3c(c2)C2(CCC2)C(=O)N3)sc2ccccc12 [VT-02-00073]; 113
CCC1(CC)C(=O)Nc2ncc(/C=C/C(=O)N(C)Cc3cc4ccccc4n3C)cc21 [VT-02-00064]; 26.4

So for CN(Cc1cc2ccccc2n1C)C(=O)/C=C/c1cnc2[nH]nc(N(C)C)c2c1 [VT-02-00039] , the logged half-life turned out to be 46.2

So for CCC1(CC)C(=O)Nc2ncc(/C=C/C(=O)N(C)Cc3sc4ccccc4c3C)cc21 [VT-02-00078] , the logged half-life turned out to be 19.2

====

test system: Methicillin resistant Staphylococcus aureus (ATCC 33591); test: MIC by microbroth dilution, methicillin resistant S. aureus; assay type: cell-based; conditions: ATCC33591, read-out: Minimum inhibitory concentration (MIC) Methicillin resistant Staphylococcus aureus (ATCC 33591)
Overview of reported log10(MIC) across a group of compounds:
# values: log10(MIC), units µg/mL

Below, each entry is followed by its recorded log10(MIC) result.
CCC1(CC)C(=O)Nc2ncc(/C=C/C(=O)N(C)Cc3oc4ccccc4c3C)cc21; -1.82
Cc1c(CN(C)C(=O)/C=C/c2cnc3c(c2)C2(CCCCC2)C(=O)N3)sc2ccccc12; -0.30

So for Cc1c(CN(C)C(=O)/C=C/c2cnc3c(c2)C2(CCC2)C(=O)N3)oc2ccccc12 , the logged log10(MIC) turned out to be -1.22

So for CCn1c(=O)[nH]c2ncc(/C=C/C(=O)N(C)Cc3cc4ccccc4n3C)cc21 , the logged log10(MIC) turned out to be 0.00

So for CN(Cc1cc2ccccc2n1C)C(=O)/C=C/c1cnc2[nH]c(=O)[nH]c2c1 , the logged log10(MIC) turned out to be 0.30

So for Cc1c(CN(C)C(=O)/C=C/c2cnc3c(c2)C2(CCC2)C(=O)N3)sc2ccccc12 , the logged log10(MIC) turned out to be -1.82

So for Cc1c(CN(C)C(=O)/C=C/c2cnc3c(c2)C(C)(C)C(=O)N3)sc2ccccc12 , the logged log10(MIC) turned out to be -1.82
